Molecular target: T1, elastase (purified from human sputum) (human, UniProt P08246 30-267)
T1 construct: elastase, human, purified from sputum; the discussion speaks of it as a component of neutrophil azurophil granules (neutrophil elastase); source: bought: Molecular Innovations, purified from human sputum (SPR); bought: Elastin Products (enzyme assays)
T1 sequence (looked up): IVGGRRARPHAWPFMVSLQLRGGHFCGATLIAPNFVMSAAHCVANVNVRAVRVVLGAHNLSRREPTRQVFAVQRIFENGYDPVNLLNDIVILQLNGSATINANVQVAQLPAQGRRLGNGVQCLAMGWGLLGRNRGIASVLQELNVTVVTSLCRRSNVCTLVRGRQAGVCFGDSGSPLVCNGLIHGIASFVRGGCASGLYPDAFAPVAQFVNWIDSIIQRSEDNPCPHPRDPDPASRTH
Experiment: SPR; kinetics: rSimukunin immobilised on a CM5 chip by amine coupling (475.3 RU); FXa 3.1-50 nM or elastase 0.45-3.75 nM injected for 180 s at 30 µl/minute, 25°C; HBS-P (10 mM Hepes pH 7.4, 150 mM NaCl, 0.005% P20); global fit to a 1:1 Langmuir model
Details: both partners purified
pKd: −log10 of the molar value.

binder	pKd
recombinant Simukunin (rSV-66) (natural protein, Simulium vittatum, UniProt B5M0W4 20-102, looked up, SV-66 (Simukunin), Kunitz family salivary protein of the black fly Simulium vittatum; full-length ORF without signal peptide was cloned; numbers count on: the mature protein; pET-30 Ek/LIC vector; The purified protein ran as a doublet; also called rSimukunin; WT rSimukunin; source: E. coli BL21 (DE3), purified (Ni-NTA, RP-HPLC)) QENVCNLPVDEGVCRALFKRFYYEPATDSCKEFYYGGCEGNGNRFKSKKECILKCQKNKQLIKTRKRKPKKTTKPPIPIISLD	9.40
